tested on: YFV strain 17D (Stamaril) on Huh-7 cells; experiment: microbe, parasite or virus in culture; type: cell-based, yellow fever virus; details: Yellow fever virus, Huh-7
Entries and their EC50
Respond with the bare value in µM.

>  <compound>
CN1CC(=O)N(c2ccc(Cl)cc2)C1c1cc2cc(Cc3ccc4oc(C5N(C)CC(=O)N5c5ccc(Cl)cc5)cc4c3)ccc2o1 (stereo not shown)

>  <EC50 / µM>
14.4

$$$$
>  <compound>
Cc1cc(C)cc(N2C(=O)CN(C)C2c2cc3cc(Cc4ccc5oc(C6N(C)CC(=O)N6c6cc(C)cc(C)c6)cc5c4)ccc3o2)c1 (stereo not shown)

>  <EC50 / µM>
3.54

$$$$
>  <compound>
Fc1ccc(Cn2c(-c3cc4cc(Cc5ccc6oc(-c7nc8ccccc8n7Cc7ccc(F)cc7)cc6c5)ccc4o3)nc3ccccc32)cc1

>  <EC50 / µM>
28.7

$$$$

Now for another entry.
What measured EC50 goes with `CC(C)n1c(-c2cc3cc(Cc4ccc5oc(-c6nc7ccccc7n6C(C)C)cc5c4)ccc3o2)nc2ccccc21` ?
6.14
